conditions: in NMP, 313.15 K

| molecular_string | solubility (mole fraction) |
| --- | --- |
| O=C1OC(=O)[C@H]2[C@@H]1[C@@H]1C=C[C@H]2C1 | 0.225 |

---

conditions: in NMP, 283.15 K
measured_metric: solubility (mole fraction)

| molecular_string | measured_metric | measured_value |
| --- | --- | --- |
| O=C1OC(=O)[C@H]2[C@@H]1[C@@H]1C=C[C@H]2C1 | solubility (mole fraction) | 0.126 |

---

conditions: in NMP, 323.15 K

| molecular_string | solubility (mole fraction) |
| --- | --- |
| O=C1OC(=O)[C@H]2[C@@H]1[C@@H]1C=C[C@H]2C1 | 0.265 |
